tested.target: GIPC2, Q8TF65
Sequence (Q8TF65 112-203): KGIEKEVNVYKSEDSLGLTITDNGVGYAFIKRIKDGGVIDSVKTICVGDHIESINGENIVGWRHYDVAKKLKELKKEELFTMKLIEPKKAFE
assay.explanation: holdup assay
Set-up: key: below the threshold = too weak to quantify, mostly under pKd 3.1 to 4
condition.context: plain residues with an end cap or a label only (N-terminal biotin on a linker: ttds)

| binder | pKd |
| --- | --- |
| SRPQRTQTQV [HPV67-E6, A4U7F2] | below the threshold |
| PKTPPTDTSV [KIR3DL3, Q8N743] | below the threshold |
| IDNDTESTAL [ARHGAP17, Q68EM7] | below the threshold |

Each recorded value in this set is attributed to paper PMC9482650.
